EC50 values, listed per item
Molecular target: T1, Human TROP2 ECD (31-274 AA), biotinylated (human, UniProt P09758 31-274, biotinylated (site not stated))
T1 construct: captured on neutravidin plates; also called TROP2-biotin; Trop2-biotin
T1 sequence: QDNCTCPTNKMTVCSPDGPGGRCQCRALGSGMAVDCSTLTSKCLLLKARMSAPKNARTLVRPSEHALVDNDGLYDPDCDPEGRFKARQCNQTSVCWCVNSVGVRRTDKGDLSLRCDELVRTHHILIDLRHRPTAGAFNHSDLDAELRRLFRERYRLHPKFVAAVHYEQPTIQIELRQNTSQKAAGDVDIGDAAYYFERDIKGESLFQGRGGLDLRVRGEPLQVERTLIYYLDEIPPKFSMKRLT
Assay: ELISA, Fab on captured biotin-TROP2
Return type: number; implicit unit nM.

TBD-17 (HC S104A) (Fab, V domains shown, Fab; also called HC S104A mutant) VH: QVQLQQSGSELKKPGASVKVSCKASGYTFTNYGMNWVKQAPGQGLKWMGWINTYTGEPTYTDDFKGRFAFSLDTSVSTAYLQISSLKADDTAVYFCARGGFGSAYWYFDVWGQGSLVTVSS VL: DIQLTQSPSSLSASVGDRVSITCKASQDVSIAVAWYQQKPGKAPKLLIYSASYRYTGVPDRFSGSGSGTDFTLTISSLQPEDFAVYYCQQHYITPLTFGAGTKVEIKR	0.3
TBD-11 (HC R98A) (Fab, V domains shown, Fab; also called HC R98A mutant) VH: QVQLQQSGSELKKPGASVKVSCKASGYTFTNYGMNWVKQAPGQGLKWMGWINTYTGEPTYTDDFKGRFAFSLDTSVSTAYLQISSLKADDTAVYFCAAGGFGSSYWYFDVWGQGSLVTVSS VL: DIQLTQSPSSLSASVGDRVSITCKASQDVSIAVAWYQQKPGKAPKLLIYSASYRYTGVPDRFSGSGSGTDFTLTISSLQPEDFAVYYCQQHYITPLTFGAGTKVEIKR	3.4
TBD-21 (HC F108A) (Fab, V domains shown, Fab; also called HC F108A mutant) VH: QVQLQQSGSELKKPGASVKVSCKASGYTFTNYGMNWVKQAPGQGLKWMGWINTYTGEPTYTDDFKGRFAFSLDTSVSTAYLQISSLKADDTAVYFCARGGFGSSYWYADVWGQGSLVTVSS VL: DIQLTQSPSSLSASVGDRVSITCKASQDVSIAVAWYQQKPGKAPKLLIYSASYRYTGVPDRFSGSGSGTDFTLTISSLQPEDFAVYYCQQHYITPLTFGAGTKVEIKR	4.2
TBD-22 (HC D109A) (Fab, V domains shown, Fab; also called HC D109A mutant) VH: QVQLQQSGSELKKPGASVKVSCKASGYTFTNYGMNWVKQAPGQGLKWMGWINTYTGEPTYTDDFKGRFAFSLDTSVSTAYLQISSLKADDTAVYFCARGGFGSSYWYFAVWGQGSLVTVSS VL: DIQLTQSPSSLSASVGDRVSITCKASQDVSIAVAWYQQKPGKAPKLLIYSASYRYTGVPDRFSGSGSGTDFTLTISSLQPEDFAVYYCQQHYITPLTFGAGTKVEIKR	1.1

Here is another binder to look at.
If you can, please state the reported EC50 value of TBD-6 (LC I93A) (Fab, V domains shown, Fab; also called LC I93A mutant) VH: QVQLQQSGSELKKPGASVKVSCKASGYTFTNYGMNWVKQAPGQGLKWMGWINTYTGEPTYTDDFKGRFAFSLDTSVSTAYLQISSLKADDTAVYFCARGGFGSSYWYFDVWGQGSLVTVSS VL: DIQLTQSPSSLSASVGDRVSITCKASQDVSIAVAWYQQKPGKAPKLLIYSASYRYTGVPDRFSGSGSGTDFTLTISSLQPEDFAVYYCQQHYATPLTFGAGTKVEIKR . 0.3
